# IC50 per record follows
- TARGET UNDER TEST: KRAS G12V (Homo sapiens (Human), UniProt P01116+P62937, G12V)
- Sequence (P01116 other isoform, or with tags, fused parts or gaps G12V): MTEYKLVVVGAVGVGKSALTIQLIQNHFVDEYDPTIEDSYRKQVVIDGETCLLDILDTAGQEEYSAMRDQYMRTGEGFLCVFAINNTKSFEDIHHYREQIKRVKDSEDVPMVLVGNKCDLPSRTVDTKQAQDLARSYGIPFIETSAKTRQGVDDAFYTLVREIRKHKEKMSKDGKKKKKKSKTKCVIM
- Sequence (P62937 whole entry): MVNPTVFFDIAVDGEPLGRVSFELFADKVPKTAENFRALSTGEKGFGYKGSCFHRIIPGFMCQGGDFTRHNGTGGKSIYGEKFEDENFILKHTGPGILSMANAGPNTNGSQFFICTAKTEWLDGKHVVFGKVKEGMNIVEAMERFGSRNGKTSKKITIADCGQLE
- EXPERIMENTAL PROTOCOL: Ras-Raf disruption/FRET/MOA assay (BRAF RBD, Cyclophilin A)
- Format: biochemical
- ASSAY CONTEXT: read-out: KRAS G12V FRET IC50

Known IC50 results, listed for orientation:
CCn1c(-c2cccnc2[C@H](C)OC)c2c3cc(ccc31)-c1csc(n1)C[C@H](NC(=O)[C@H](C(C)C)N(C)C(=O)N1CC3(CCN(C)C3)C1)C(=O)N1CCC[C@H](N1)C(=O)OCC(C)(C)C2
100 to 1000 nM
CCn1c(-c2cccnc2[C@H](C)OC)c2c3cc(ccc31)-c1csc(n1)C[C@H](NC(=O)[C@H](C(C)C)N(C)C(=O)N1CCOC3(COC3)C1)C(=O)N1CCC[C@H](N1)C(=O)OCC(C)(C)C2
100 to 1000 nM

Recorded IC50 (compound CCn1c(-c2cnccc2COC)c2c3cc(ccc31)-c1cc(O)cc(c1)C[C@H](NC(=O)[C@@H](NC(C)=O)C(C)C)C(=O)N1CCC[C@H](N1)C(=O)OCC(C)(C)C2 ): 1000 to 10000 nM

Recorded IC50 (compound CCn1c(-c2cccnc2[C@H](C)OC)c2c3cc(ccc31)-c1cc(O)cc(c1)C[C@H](NC(=O)[C@H](C(C)C)N(C)C(=O)[C@H]1[C@@H]3CNC[C@@H]31)C(=O)N1CCC[C@H](N1)C(=O)OCC(C)(C)C2 ): 1000 to 10000 nM

Recorded IC50 (compound CCn1c(-c2cccnc2[C@H](C)OC)c2c3cc(ccc31)-c1cc(O)cc(c1)C[C@H](NC(=O)[C@H](C(C)C)N(C)C(=O)[C@@H]1OCC[C@H]1c1ccccc1)C(=O)N1CCC[C@H](N1)C(=O)OCC(C)(C)C2 ): 10 to 100 nM

Recorded IC50 (compound CCn1c(-c2cccnc2[C@H](C)OC)c2c3cc(ccc31)-c1csc(n1)C[C@H](NC(=O)[C@H](C(C)C)N(C)C(=O)N1CC[C@@]13CCCNC3)C(=O)N1CCC[C@H](N1)C(=O)OCC(C)(C)C2 ): 1000 to 10000 nM

###

- TARGET UNDER TEST: NRAS Q61R (Homo sapiens (Human), UniProt P01111+P62937, Q61R)
- Sequence (P01111 whole entry Q61R): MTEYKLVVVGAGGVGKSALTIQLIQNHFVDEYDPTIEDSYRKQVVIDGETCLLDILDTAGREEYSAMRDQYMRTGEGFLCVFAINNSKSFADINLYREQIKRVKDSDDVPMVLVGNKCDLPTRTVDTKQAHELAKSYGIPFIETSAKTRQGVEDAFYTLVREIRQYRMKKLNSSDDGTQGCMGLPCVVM
- Sequence (P62937 whole entry): as the sequence (P62937 whole entry) above
- EXPERIMENTAL PROTOCOL: Ras-Raf disruption/FRET/MOA assay, NRAS Q61R
- Format: biochemical
MEASURED ATTRIBUTE: IC50

CCn1c(-c2cccnc2[C@H](C)OC)c2c3cc(ccc31)-c1cc(O)cc(c1)C[C@H](NC(=O)[C@H](C(C)C)N(C)C(=O)[C@@]1(C)CCCN1C(=O)[C@H]1CN1)C(=O)N1CCC[C@H](N1)C(=O)OCC(C)(C)C2
100 to 1000 nM
CCn1c(-c2cccnc2[C@H](C)OC)c2c3cc(ccc31)-c1cc(O)cc(c1)C[C@H](NC(=O)[C@H](C(C)C)N(C)C(=O)[C@]1(C)CCCN1C(=O)[C@H]1CN1)C(=O)N1CCC[C@H](N1)C(=O)OCC(C)(C)C2
1000 to 10000 nM
CCn1c(-c2cccnc2[C@H](C)OC)c2c3cc(ccc31)-c1cc(O)cc(c1)C[C@H](NC(=O)[C@H](C(C)C)N(C)C(=O)[C@@]1(C)CCCN1C(=O)[C@@H]1CN1)C(=O)N1CCC[C@H](N1)C(=O)OCC(C)(C)C2
100 to 1000 nM
CCn1c(-c2cccnc2[C@H](C)OC)c2c3cc(ccc31)-c1cc(O)cc(c1)C[C@H](NC(=O)[C@H](C(C)C)N(C)C(=O)[C@]13C[C@H]1CCN3C(=O)[C@H]1CN1)C(=O)N1CCC[C@H](N1)C(=O)OCC(C)(C)C2
100 to 1000 nM
CCn1c(-c2cccnc2[C@H](C)OC)c2c3cc(ccc31)-c1cc(O)cc(c1)C[C@H](NC(=O)[C@H](C(C)C)N(C)C(=O)[C@@H]1CO[C@H](C)CN1C(=O)[C@H]1CN1)C(=O)N1CCC[C@H](N1)C(=O)OCC(C)(C)C2
100 to 1000 nM
CCn1c(-c2cccnc2[C@H](C)OC)c2c3cc(ccc31)-c1cc(O)cc(c1)C[C@H](NC(=O)[C@H](C(C)C)N(C)C(=O)[C@@H]1CO[C@H](C)CN1C(=O)[C@@H]1CN1)C(=O)N1CCC[C@H](N1)C(=O)OCC(C)(C)C2
10 to 100 nM
CCn1c(-c2cccnc2[C@H](C)OC)c2c3cc(ccc31)-c1cc(O)cc(c1)C[C@H](NC(=O)[C@@H](C(C)C)N(C)C(=O)[C@@]1(C)CCCN1C(=O)[C@@H]1CN1)C(=O)N1CCC[C@H](N1)C(=O)OCC(C)(C)C2
1000 to 10000 nM

Now, please, on to the next molecule.
Recorded IC50 (molecule CCn1c(-c2cccnc2[C@H](C)OC)c2c3cc(ccc31)-c1cc(O)cc(c1)C[C@H](NC(=O)[C@@H](C(C)C)N(C)C(=O)[C@@]1(C)CCCN1C(=O)[C@H]1CN1)C(=O)N1CCC[C@H](N1)C(=O)OCC(C)(C)C2 ): 1000 to 10000 nM
